Origin of measurements: paper PMC6736360

- measurement notes: Mouse gastrointestinal tissue pharmacokinetics
- Assay type: in vivo, mice
- condition label: mouse, ileum, oral, elacridar in Ileum; read-out: Observed Cmax
measurement kind: Cmax (µM)
Just the number in µM, nothing appended.

Query string: Please look up its Cmax: COc1cc2c(cc1OC)CN(CCc1ccc(NC(=O)c3cccc4c(=O)c5cccc(OC)c5[nH]c34)cc1)CC2 [elacridar, reference compound]
Result string: 35.2

---

- measurement notes: Mouse gastrointestinal tissue pharmacokinetics
- Type: in vivo, mice
- condition label: mouse, cecum/colon, po, 30 mg/kg, Cecum/Colon, BKI 1318 alone; read-out: Observed Cmax
measurement kind: Cmax (µM)
Field: numeric (µM). Do not append units.

Query string: Given the entry CCOc1ccc2cc(-c3nn(CC4CCNCC4)c4ncnc(N)c34)ccc2n1 [BKI1318] , report its measured Cmax.
Result string: 14.4

---

- measurement notes: Mouse gastrointestinal tissue pharmacokinetics
- Assay type: in vivo, mice
- condition label: mouse, cecum/colon, oral, elacridar in Cecum/Colon; read-out: Observed Cmax
measurement kind: Cmax (µM)
Give just the numeric value; µM need not be written.

Query string: I'd like to know its Cmax. The compound in question is COc1cc2c(cc1OC)CN(CCc1ccc(NC(=O)c3cccc4c(=O)c5cccc(OC)c5[nH]c34)cc1)CC2 [elacridar, reference compound]
Result string: 3.3

---

- measurement notes: Mouse gastrointestinal tissue pharmacokinetics
- Assay type: in vivo, mice
- condition label: mouse, ileum, oral, elacridar in Ileum; read-out: Tmax
measurement kind: Tmax (h)
Answer format: numeric, h implied, no suffix.

Query string: Requested read-out: Tmax. Entry: COc1cc2c(cc1OC)CN(CCc1ccc(NC(=O)c3cccc4c(=O)c5cccc(OC)c5[nH]c34)cc1)CC2 [elacridar, reference compound]
Result string: 1.7

---

- measurement notes: Mouse gastrointestinal tissue pharmacokinetics
- Type: in vivo, mice
- condition label: mouse, duodenum, po, Duodenum, BKI 1318 alone; read-out: Observed Cmax
measurement kind: Cmax (µM)
// return numeric value only (unit: µM, not printed)

Query string: // lookup Cmax for `CCOc1ccc2cc(-c3nn(CC4CCNCC4)c4ncnc(N)c34)ccc2n1`
Result string: 77.2

---

- measurement notes: Mouse gastrointestinal tissue pharmacokinetics
- Assay type: in vivo, mice
- condition label: mouse, duodenum, oral, elacridar in Duodenum; read-out: Tmax
measurement kind: Tmax (min)
# value in min; strip the unit string

Query string: Fill in: Tmax of COc1cc2c(cc1OC)CN(CCc1ccc(NC(=O)c3cccc4c(=O)c5cccc(OC)c5[nH]c34)cc1)CC2 [elacridar, reference compound] is ___
Result string: 36

---

Kindly supply the reported Tmax values for the records listed here.
- measurement notes: Mouse oral plasma pharmacokinetics with or without elacridar
- Type: in vivo, mice
- condition label: mouse, plasma, po, mouse plasma, oral; 1369 60 mg/kg, 1318 50 mg/kg; alone; read-out: Tmax
Number only, in h; omit the unit.

Query string: Fill in the blank: the reported Tmax of CCOc1ccc2cc(-c3nn(CC4CCNCC4)c4ncnc(N)c34)ccc2n1 [BKI1318] is ____.
Result string: 2.3

Query string: Requested field: Tmax. Item: CCOc1ccc2cc(-c3nn(CC4CCN(C)CC4)c4ncnc(N)c34)ccc2n1 [BKI1369]
Result string: 2

---

- measurement notes: Mouse gastrointestinal tissue pharmacokinetics
- Format: in vivo, mice
- condition label: mouse, jejunum, po, Jejunum, BKI 1318 alone; read-out: Observed Cmax
measurement kind: Cmax (µM)
Your answer should be a plain number; it is taken to be in µM.

Query string: Consider the molecule shown here: `CCOc1ccc2cc(-c3nn(CC4CCNCC4)c4ncnc(N)c34)ccc2n1` What is its recorded Cmax?
Result string: 108
